meta.source: PubChem BioAssay (NCI)

Test system: MDA-MB-468 breast
Assay: NCI-60 one-dose screen, 48 h
Conditions: 10 µM unless noted
This is part of a sample that, as a whole, favours compounds with a hit. Of some 83,000 tested, about 20% had one in any assay. The source made the active and inactive calls. Rule for the calls: active = growth percent below 10; inactive = the rest.
I would appreciate it if you answered using one of these outcomes: active, inactive

Q. # lookup: test call for COc1cccc(NC(=O)c2sc3nc4c(cc3c2N)C(=O)CCC4)c1
A. inactive

Q. # lookup: test call for O=C(/C(=N/O)c1ccccc1)c1ccccc1
A. inactive

Q. # lookup: test call for C#Cc1cccc(Nc2ncnc3cc(NC(=O)CCl)ccc23)c1
A. active

Q. # lookup: test call for Cc1cc(N2CCN(CC(=O)Nc3ccc4c(ccn4C)c3)CC2)nc(N2CCCCCC2)n1
A. inactive

Q. # lookup: test call for Cc1cc(SC#N)cc(C(C)(C)C)c1O
A. inactive

Q. # lookup: test call for C=C1CCC2C3(C)COC(c4ccccc4)OC3CCC2(C)C1C/C=C1/C(=O)OCC1OC(C)=O (configuration not stated)
A. inactive

Q. # lookup: test call for O=[N+]([O-])c1cc(-c2ccccc2)c(O)c([N+](=O)[O-])c1
A. inactive

Q. # lookup: test call for COc1ccc(-c2cc(-c3nnc(SCC(=O)Nc4ccc(C(C)=O)cc4)n3-c3ccccc3)c3ccccc3n2)cc1OC
A. inactive

Q. # lookup: test call for O=C1NC(c2ccc(Cl)c(Cl)c2)=C/C1=C\c1ccccc1
A. inactive

Q. # lookup: test call for Nc1nc(N)c2c(n1)NC1(C=C(O)c3ccccc31)C1=C(N2)c2ccccc2C1=O (configuration not stated)
A. inactive

Q. # lookup: test call for CC1CCN(S(=O)(=O)c2ccc(S(=O)(=O)N3CCCC(c4nc5c(nnn5Cc5cccc(Cl)c5)c(=O)[nH]4)C3)cc2)CC1 (configuration not stated)
A. inactive

Q. # lookup: test call for CC/C(=C(/c1ccc(Cl)cc1)c1ccc(OCCN2CCCCCC2)cc1)c1ccccc1
A. inactive

Q. # lookup: test call for COc1ccc2c(ccc[n+]2C)c1
A. inactive

Q. # lookup: test call for CCN(CC)CCN1C(=O)c2c(c(C)c3c(oc4ccc(O)cc43)c2C)C1=O
A. inactive

Q. # lookup: test call for CC(=O)c1ccc(NS(=O)(=O)c2ccc([N+](=O)[O-])cc2)cc1
A. inactive

Q. # lookup: test call for O=C(c1ccc(Cl)cc1)C1[C@H](c2ccc(Cl)cc2)[C@@H](c2ccccc2)NC12C(=O)Nc1ccc(Br)cc12 (some centres not stated)
A. inactive

Q. # lookup: test call for COc1ccc(-c2noc(C(=O)O)c2-c2cc(OC)c(OC)c(OC)c2)cc1
A. inactive

Q. # lookup: test call for COc1ccc(\C=N/N=C(N)/C(N)=N\N=C/c2ccc(OC)cc2)cc1
A. inactive

Q. # lookup: test call for O=C(O)c1occ(Cl)c1Cl
A. inactive

Q. # lookup: test call for COc1ccc(Cl)cc1NC(=O)C(Br)C(Br)C(=O)O (configuration not stated)
A. active

Q. # lookup: test call for CCNC(=O)Oc1ccc(/C(=C(/C)c2ccc(OC)cc2)c2ccc(OCCN3CCCCCC3)cc2)cc1
A. inactive

Q. # lookup: test call for N#CC1=C(N)Oc2nc[nH]c(=O)c2C1c1cccs1 (configuration not stated)
A. inactive

Q. # lookup: test call for COc1ccc(C(=O)/C=C/c2ccc(/C=C/c3cc(OC)c(OC)c(OC)c3)cc2)cc1
A. inactive

Q. # lookup: test call for CCCC1=NNC(=O)C1
A. inactive

Q. # lookup: test call for COc1ccc(-c2nn(-c3cccc(Cl)c3)cc2-c2c(C#N)c(=O)n3[nH]c(-c4ccccc4)nc3c2C#N)cc1
A. inactive

Q. # lookup: test call for COc1cc(/C=N/n2cnc3oc(-c4ccccc4)cc3c2=N)cc(CN2CCOCC2)c1O
A. inactive

Q. # lookup: test call for COC(=O)c1c2c(c(C)[n+]([O-])c1C)C(=O)C(NCc1cccc(Cl)c1)=CC2=O
A. active

Q. # lookup: test call for COc1ccc(/C=C2\COc3ccc(O)cc3C2=O)c(OC)c1
A. active

Q. # lookup: test call for Cc1ccc(S(=O)(=O)c2nc(-c3ccc(F)cc3)oc2S(C)(=O)=O)cc1
A. inactive

Q. # lookup: test call for CNC(=O)c1cc(-c2ccc(NC(=S)Nc3cccc(C(F)(F)F)c3)cc2)nc2cccnc12
A. inactive

Q. # lookup: test call for Cc1ccc2c(n1)C(=O)C(Cl)=C(Nc1cccc(C)c1C)C2=O
A. active

Q. # lookup: test call for S=c1nn[nH]c2ccccc12
A. inactive

Q. # lookup: test call for O=C1CCCC=CC[C@H]2C=C(Cl)C(=O)C2=CC[C@H](CCCCC(F)(F)F)OC(=O)CCCC=CC[C@H]2C=C(Cl)C(=O)C2=CC[C@H](CCCCC(F)(F)F)OC(=O)CCCC=CC[C@H]2C=C(Cl)C(=O)C2=CC[C@H](CCCCC(F)(F)F)O1
A. inactive

Q. # lookup: test call for Cc1ccc2[nH]c(=O)c3c(c2c1)OC(N)=C(C#N)C31c2cc(Br)ccc2-c2ccc(Br)cc21
A. inactive

Q. # lookup: test call for Cc1cccc2cc(/C=C/C(=O)/C=C/c3ccc(Cl)cc3)c(=O)[nH]c12
A. inactive

Q. # lookup: test call for CC1CN(c2oc(-c3ccccc3)nc2C#N)CC(C)O1 (configuration not stated)
A. inactive

Q. # lookup: test call for COc1ccc(-c2cc(-c3cn(-c4cccc(Cl)c4)nc3-c3ccc(OC)cc3)on2)cc1
A. inactive

Q. # lookup: test call for CC/C=C\C/C=C\C[C@H]1C/C=C2/C(=O)C=C[C@H]2C/C=C\CCC(=O)O1
A. active

Q. # lookup: test call for Cc1cc(C)cc(CCCCCCCCCCCCCCCCCC(=O)O)c1
A. inactive

Q. # lookup: test call for COc1cccc(-c2nnc(COc3ccc(-c4nc5ccccc5[nH]4)cc3OC)o2)c1
A. inactive

Q. # lookup: test call for COc1cccc(C2C3=C(COC3=O)N(CCO)c3cc4c(cc32)CCC4)c1 (configuration not stated)
A. active

Q. # lookup: test call for CNC1(C#N)CCN(Cc2ccccc2)CC1
A. inactive
